# System: MILI (PIWIL2) piRISC loaded with L1MC piRNA (26 nt);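 further: 1 nM active piRISC with 0.1 nM target library at 33 °C single turnover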
# procedure.text: pre-steady-state target cleavage rate (min^-1); guide: L1MC piRNA 5'p-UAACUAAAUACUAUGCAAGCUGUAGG; higher = faster piRNA-guided slicing of the target
# test.conditions: auxiliary factor: none (no GTSF1)
readout.type: pre-steady-state target cleavage rate
One number for each entry.

Consider the reported pre-steady-state target cleavage rate for these sequences:
>>> df
           macromolecule_sequence                           readout_type  numeric_result
0  UCCUGGAACAGCUAGCUUAGUAUUUAGUUA  pre-steady-state target cleavage rate          0.0065
1  UCCUGGAUGUCGUUGCAAAGUAUUUAGUAA  pre-steady-state target cleavage rate         0.00357
2  UCCUGGAUGUCGAAGCAUAGUGUUUAGUUA  pre-steady-state target cleavage rate         0.00454
3  UCCUGGUACAGGUUGCAUAGUAUUUUGUUA  pre-steady-state target cleavage rate          0.0111
4  UCCUGGUACAGCAUGCAUAGUAUUUACUUA  pre-steady-state target cleavage rate         0.00419

# map each sequence to its pre-steady-state target cleavage rate
1. UCCUGGAUCAGCUUGCUUAGUAUUUUGUUA
2. UCCUGGAUGAGCUUGCAUCGUAUUUAGUUA
3. UCCUGGAUGAGCUAGGAUAGUAUUUAGUUA
4. UCCUGGUUCAGCUUGCAUAGUAUAUAGUUA
5. UCCUCCUACAGCUAGCAUAGUAUUUAGUUA

Reply:
0.00583
0.00554
0.00494
0.0112
0.00812

Please state pre-steady-state target cleavage rate for every sequence in the list that follows.
1. UCCUCCUACAGCUUGCAUAGUAUUUUGUUA
2. UCCUGGAUGUCGAUGCGUAGUAUUUAGUUA
3. UCCUCCUACAGCUUGCAUAGUAUAUUGUUA
4. UCCUGGAUGUCCUCUGCAUAGUAUUUAGUUA
5. UCCUGGAUCAGCUUGGAUAGUUUUUAGUUA
6. UCCUGCUCAGCUUGCAUAGUAUUUAGUUA
7. UCCUGGAUGUGCUUGCAUAGUAAUUAGUUA
8. UCCUCCUACACCUUGGAUAGUAUUUAGUUA

Reply:
[0.0036, 0.00501, 0.00269, 0.00562, 0.00364, 0.00716, 0.00684, 0.00508]

Go through the list and state pre-steady-state target cleavage rate for each entry.
1. UCCUGGAUCAGCUUGCAUAGCAUUUAGUUA
2. UCCUGGAUGUCCUUGCAUAGUAUUUACGUUA

Reply:
[0.00359, 0.00693]

###

# Tested on: EfPiwi piRISC loaded with L1MC piRNA (26 nt)
# procedure.text: pre-steady-state target cleavage rate (min^-1); auxiliary factor: 500 nM Ephydatia muelleri Gtsf1; guide: L1MC piRNA 5'p-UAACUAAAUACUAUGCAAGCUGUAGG; MIWI and MILI are mouse PIWI proteins and EfPiwi is from a freshwater sponge; tags in brackets are library labels; higher = faster piRNA-guided slicing of the target
readout.type: pre-steady-state target cleavage rate
Answers are plain numbers.

>>> print(df.to_string())
            macromolecule_sequence                           subject_of_test                           readout_type  numeric_result
0   UCCUCCUACACCUUGCAUAGUAUUUAGAAA  EfPiwi piRISC loaded with L1MC piRNA (26 nt)  pre-steady-state target cleavage rate         0.00377
1  UCCUGGAUGAGCUUGCAUAGUAUUAUAGUUA  EfPiwi piRISC loaded with L1MC piRNA (26 nt)  pre-steady-state target cleavage rate          0.0159
2   UCCUGGUACAGGAUGCAUAGUAUUUAGUUA  EfPiwi piRISC loaded with L1MC piRNA (26 nt)  pre-steady-state target cleavage rate         0.00598
3   UCCUGGAAGUGCUUGCAUAGUAUUUAGAAA  EfPiwi piRISC loaded with L1MC piRNA (26 nt)  pre-steady-state target cleavage rate         0.00379
4   UCCUGGAUGUGCUUCCAAAGUAUUUAGUUA  EfPiwi piRISC loaded with L1MC piRNA (26 nt)  pre-steady-state target cleavage rate         0.00463

Consider the following items and state reported pre-steady-state target cleavage rate for each.
1. UCCUGCUACAGCUUGCAUAGUAUUCAGUUA
2. UCCUGGAUGUCCUUAGCAUAGUAUUUAGUUA

Reply:
1. 0.00508
2. 0.00479

Go through the list and state pre-steady-state target cleavage rate for each entry.
1. UCCUGGAACAGCUUCCAAAGUAUUUAGUUA
2. UCCUCCUACAGGUUGCAUAGUAUUUAGAUA
3. UCCUGCAACAGCUUGCAUAGUAUUAAGUUA
4. UCCUGGUUCAGCUUGCAUAGUAUAUAGUUA
5. UCCUGGAUCAGCUUGCAUAGUAUUUUGAUA
6. UCCUGGAUCAGCUUGCAUUGUAUUUAGUUA
7. UCCUGCUACAGCUUGCAUAGUUUUAAGUUA

Reply:
0.00262
0.00362
0.00881
0.00607
0.00716
0.0179
0.00341

For each of the sequences below, state pre-steady-state target cleavage rate.
1. UCCUCCUACAGGUUGCAUAGUAUUAAGUUA
2. UCCUGGUACAGCAUGCAUAGUAUUUAGUAA
3. UCCUGCUACAGCUUGCCUAGUAUUUAGUUA

Reply:
1: 0.00576; 2: 0.00753; 3: 0.00702

Hi, could you look up pre-steady-state target cleavage rate for each item in my list?
1. UCCUGGAUGUCGAUGCAUAGUACUUAGUUA
2. UCCUGGAUGUCCUUGCAUAGUAUUUAGUUUA
3. UCCUGGAUCAGCUUGCAUAGUAUAUAGUUA
4. UCCUGGAACAGCUGUGCAUAGUAUUUAGUUA

Reply:
1. 0.00454
2. 0.00634
3. 0.0716
4. 0.00999

Measured values drawn from the supplement of paper PMC10338343 for this set.
